Here's a roundup of IC50 values tested on PDE1A (Homo sapiens), taken from various published works.

Cc1nn2c(C3CCOCC3)ncc2c(=O)n1CC1CCCCC1 = 15 nM
O=C(Nc1ccccc1)N1CC(c2nc3c(cnn3C3CCCCC3)c(=O)[nH]2)C1 = 1 to 100 nM
CCCc1nn(C)c2c(=O)[nH]c(NCc3nnc4ccccn34)nc12 = 101 to 500 nM

// moving on: another record for IC50
Query :: Recorded IC50 for O=C(NCc1ccccc1)N1CC(c2nc3c(cnn3C3CCCCC3)c(=O)[nH]2)C1 , please?
Result :: 1 to 100 nM

---

Here's a roundup of IC50 values tested on PDE1A (Homo sapiens, UniProt P54750), taken from various published works.
readout: IC50 (nM)

I. Cc1ccc(Cc2nn3c(C4CCOCC4)ncc3c(=O)n2CC2CCOCC2)cc1
II. COc1ccc(Cn2c(C)cn3c(C4(C)CCN(S(N)(=O)=O)C4)ncc3c2=O)cc1 (centres unmarked)
III. CCOc1ncccc1-c1cc(NCc2cccc3nccn23)c2c(C(C)C)nc(C)n2n1
Query :: Write the entries in order, lowest recorded IC50 first. Sort and list the labels as requested.
Result :: III, II, I
(III: 35 nM, II: 181 nM, I: 583 nM)

1. CCOc1ncccc1-c1cc(NCc2nnc(C)o2)c2c(C(C)C)nc(C)n2n1
2. Cc1cn2c(C3CCOCC3)ncc2c(=O)n1CC1CCCC1
Query :: Look at 1 and 2 . Which one has the lower recorded IC50 number? Response format: the label of the selected entry.
Result :: 1
